B1: TRIM43 (parent)
chain: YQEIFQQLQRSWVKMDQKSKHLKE

- Variants of: B1
- experiment-summary: protein stability index of a GFP-peptide fusion (GPS, HEK-293T) (PSI 1-6); higher = more stable;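 note: lentivirally expressed fusions sorted by FACS into six bins by GFP to DsRed ratio, PSI derived from sequencing read proportions per bin multiplied by bin number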
- test-context: c terminus: a fixed tail appended
Rule: protein stability index of 2 or more gives 1 (yes); anything lower gives 0 (no).

Input: Threshold query (protein stability index >= 2) on YQEIFQQLQRSWVKMDQKSKHLIE
Output: 1 (yes)

Input: Threshold query (protein stability index >= 2) on YQEIFQQLQRMWVKMDQKSKHLKE
Output: 0 (no)

Data provenance is the supplement of paper PMC10567573.
